Reference source for all entries: paper PMC7125423

- assay target: influenza H1N1 virus neuraminidase (Influenza A virus, UniProt P03468)
- Sequence (P03468 whole entry): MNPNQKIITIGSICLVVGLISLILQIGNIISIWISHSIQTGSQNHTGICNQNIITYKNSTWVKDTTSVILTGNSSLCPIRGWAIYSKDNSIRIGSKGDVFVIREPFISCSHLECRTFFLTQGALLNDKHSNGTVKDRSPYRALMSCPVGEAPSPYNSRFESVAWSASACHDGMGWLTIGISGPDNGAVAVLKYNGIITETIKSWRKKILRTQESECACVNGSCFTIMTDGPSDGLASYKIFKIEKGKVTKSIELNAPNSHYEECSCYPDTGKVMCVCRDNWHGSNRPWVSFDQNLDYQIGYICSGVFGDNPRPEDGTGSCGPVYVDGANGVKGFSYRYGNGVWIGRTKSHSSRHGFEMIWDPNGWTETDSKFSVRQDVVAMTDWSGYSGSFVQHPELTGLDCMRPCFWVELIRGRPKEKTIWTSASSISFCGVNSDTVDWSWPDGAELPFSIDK
- assay remarks: Neuraminidase inhibition screening assay
- Format: biochemical
- conditions: IC50, NA activity inhibition assay
measured attribute: IC50 (µM)
Answers are plain numbers, in µM.

{"molecule": "O=C(/C=C/c1ccc(O)cc1)CC(=O)/C=C/c1ccc(O)cc1", "readout unit": "µM", "IC50": 70.1}
{"molecule": "COc1cc(CCC(=O)CC(O)CCc2ccc(O)c(OC)c2)ccc1O (stereo not shown) [Hexahydrocurcumin]", "readout unit": "µM", "IC50": 33700}
{"molecule": "COc1cc(CCC(O)CC(O)CCc2ccc(O)c(OC)c2)ccc1O (stereo not shown) [Octahydrocurcumin]", "readout unit": "µM", "IC50": 1530}

Field: IC50. Fill in for each record below.
1. COc1cc(/C=C/C(O)=C/C(=O)/C=C/c2ccc(O)cc2)ccc1O
2. COc1ccc(/C=C/C(=O)/C=C(O)/C=C/c2ccc(OC)c(OC)c2)cc1OC
3. COc1cc(/C=C/C(=O)CC(=O)/C=C/c2ccc(O)c(OC)c2)ccc1O
4. COc1cc(CCC(=O)CC(=O)CCc2ccc(O)c(OC)c2)ccc1O [Tetrahydrocurcumin]

[200, 1610, 450, 203]
